Recorded values, source patent US12331051B2.

target: Serotonin 7 receptor (5-HT7R) (Homo sapiens, UniProt P34969); assay: Functional assay in HEK-293 cells (cAMP)
Sequence (P34969 whole entry): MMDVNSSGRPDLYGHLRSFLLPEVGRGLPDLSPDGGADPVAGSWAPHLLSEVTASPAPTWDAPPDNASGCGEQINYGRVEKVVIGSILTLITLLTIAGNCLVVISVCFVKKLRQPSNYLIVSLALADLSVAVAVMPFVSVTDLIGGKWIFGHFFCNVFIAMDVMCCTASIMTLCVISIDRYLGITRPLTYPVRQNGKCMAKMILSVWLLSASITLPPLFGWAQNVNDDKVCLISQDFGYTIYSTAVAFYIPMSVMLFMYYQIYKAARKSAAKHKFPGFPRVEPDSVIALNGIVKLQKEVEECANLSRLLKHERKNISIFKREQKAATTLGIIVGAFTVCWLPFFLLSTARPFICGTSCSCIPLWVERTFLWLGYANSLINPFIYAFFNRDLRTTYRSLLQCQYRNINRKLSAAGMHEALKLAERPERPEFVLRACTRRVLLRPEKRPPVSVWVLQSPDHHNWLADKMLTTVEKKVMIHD
RECORDED_METRIC: pIC50
Keep in mind that pIC50 stands for -log10 of concentration in molar terms.

Query: Sample "CCN(CC)C(=O)[C@@H]1C=C2c3cccc4[nH]c(Br)c(c34)C[C@H]2N(C)C1" — what was its pIC50?
Response: 6.62

* * *

Biological target: UniProt P28335
Sequence (P28335 33-458): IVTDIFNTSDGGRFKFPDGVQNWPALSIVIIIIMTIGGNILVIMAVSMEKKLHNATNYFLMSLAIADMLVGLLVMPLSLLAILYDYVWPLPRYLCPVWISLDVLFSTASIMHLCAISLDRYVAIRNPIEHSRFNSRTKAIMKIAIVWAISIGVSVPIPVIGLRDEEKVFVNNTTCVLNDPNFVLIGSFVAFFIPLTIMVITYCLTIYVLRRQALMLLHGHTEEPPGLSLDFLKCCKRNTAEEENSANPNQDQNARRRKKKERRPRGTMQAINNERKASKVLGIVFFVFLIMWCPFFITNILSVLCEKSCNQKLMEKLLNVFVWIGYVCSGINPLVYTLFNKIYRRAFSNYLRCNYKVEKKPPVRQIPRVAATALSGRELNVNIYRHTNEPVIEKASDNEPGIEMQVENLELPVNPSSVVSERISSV
Assay: Functional assay in HEK-293 cells (IP1)
Protocol: Neuro-receptor binding and functional effects of the “E559 polymorph” was examined by analyzing binding affinity [Ki (nM)], functional agonist activity [EC50 (nM)], and functional antagonist activity [IC50 (nM)] against a panel of key receptors in neurophysiological disorders. […] The measurement of binding affinity of the “E559 polymorph” is represented in TABLE XIII by Ki (nM) which was calculated as percent inhibition of the binding of a radioactively labeled reference ligand at each receptor. […]
pEC50: −log10 of the molar value.
RECORDED_METRIC: pEC50

Query: Please give the measured pEC50 for this compound: CCN(CC)C(=O)[C@@H]1C=C2c3cccc4[nH]c(Br)c(c34)C[C@H]2N(C)C1 [E559]
Response: < 5.00
